- testedTarget: SARS-CoV-2 S-RBD with Avi-tag and deca-His tag (residues 330-531) (SARS-CoV-2, UniProt P0DTC2, biotin on the Avi tag (BirA) where immobilised on streptavidin sensors or used in ELISA and FSEC)

{"binder": "SR47 (VHH) VHH: QVQLVESGGGLVQAGGSLRLSCAASGFPVKTETMHWYRQAPGKEREWVAAIYSYGTYTLYADSVKGRFTISRDNAKNTVYLQMNSLKPEDTAVYYCEVQVGEWYEGQGTQVTVS", "binding result": "binds"}
{"binder": "SR36 (VHH) VHH: QVQLVESGGGLVQAGGSLRLSCAASGFPVYMEEMEWYRQAPGKEREWVAAIASYGSETYYADSVKGRFTISRDNAKNTVYLQMNSLKPEDTAVYYCYVYVGQSYIGQGTQVTVS", "binding result": "binds"}

Values compiled from paper PMC8324831.
